- Tested on: MDA-MB-231 breast
- Test Protocol: NCI-60 one-dose screen, 48 h
- Setup Conditions: 10 µM unless noted
This is part of a sample that, as a whole, favours compounds with a hit. Of some 83,000 tested, about 20% had one in any assay. Activity calls are given as the source filed them. Rule for the calls: active = growth percent below 10; inactive = the rest.
Classes used: TRUE = active, FALSE = inactive

compound=O=C(O)CCCCCCCCCCN1C(=O)/C(=C2/C(=O)N(CC(=O)O)c3ccc(Br)cc32)SC1=S target_system="MDA-MB-231 breast" qualitative_label=FALSE
compound=CSc1ccc2c3c(n(CCCn4ccnc4)c(=O)c2c1)-c1ccccc1C3=O target_system="MDA-MB-231 breast" qualitative_label=FALSE
compound="COc1ccc2c(c1)C(C)Cc1c(ncnc1-n1cnc3cc(C)ccc31)N2C (configuration not stated)" target_system="MDA-MB-231 breast" qualitative_label=FALSE
compound=CCOc1ccc(NC(=O)Nc2ccc(OCC)cc2)cc1 target_system="MDA-MB-231 breast" qualitative_label=FALSE
compound="COc1ccc2c(c1)CC[C@@H]1[C@@H]2CC[C@]2(C)C3C(=CC(COC(C)=O)C4C(=O)N(c5ccc(Cl)cc5)C(=O)C43)C[C@@H]12 (some centres not stated)" target_system="MDA-MB-231 breast" qualitative_label=FALSE
compound="N#Cc1ccc(O)c(C2=NCC(c3ccc(-c4ccccc4)cc3)O2)c1 (configuration not stated)" target_system="MDA-MB-231 breast" qualitative_label=FALSE
compound=COc1cc(/C=C/C(=O)c2cc(OC)c(OC)c(OC)c2)ccc1Oc1nc2c(c(=O)n(C)c(=O)n2C)n1C target_system="MDA-MB-231 breast" qualitative_label=TRUE
compound=CCOC(=O)NCCCC(=O)NCCc1ccccc1 target_system="MDA-MB-231 breast" qualitative_label=FALSE
compound=CS(=O)(=O)Nc1cc(-c2ccc3ncnc(Nc4ccc(OCc5ccccn5)c(Cl)c4)c3c2)cnc1Cl target_system="MDA-MB-231 breast" qualitative_label=TRUE
compound="C#CCOc1cccc(Nc2ncnc3c2ncn3C2CCN(C(=O)CCl)C2)c1 (configuration not stated)" target_system="MDA-MB-231 breast" qualitative_label=TRUE
compound="COc1cc2c(c(OC)c1OC)CCC(c1cccc(C(=O)Nc3ccc(Br)cc3)c1)O2 (configuration not stated)" target_system="MDA-MB-231 breast" qualitative_label=FALSE
compound=C=CN(C(=O)N1CCN(c2cc3c(cc2F)c(=O)c(C(=O)O)cn3C2CC2)CC1)c1nc(-c2ccccc2)cs1 target_system="MDA-MB-231 breast" qualitative_label=FALSE
compound=CN(C)CCC(CCN(C)C)(C(=O)O)c1ccccc1 target_system="MDA-MB-231 breast" qualitative_label=FALSE
compound=c1cc(OCCN2CCCCC2)ccc1CNc1ccc2nc(CCC3CCCCC3)[nH]c2c1 target_system="MDA-MB-231 breast" qualitative_label=TRUE
compound="O=C(NN1C(=O)CSC1c1cccc([N+](=O)[O-])c1)c1ccc(NC(=O)c2ccccn2)cc1 (configuration not stated)" target_system="MDA-MB-231 breast" qualitative_label=FALSE
compound=Clc1ccc(-c2nc(C(Cl)Cl)nc3cc(-c4ccccc4)nn23)cc1 target_system="MDA-MB-231 breast" qualitative_label=FALSE
compound=COc1ccc(Nc2ncc(C#N)c(NCCCNC(=O)C3CCC3)n2)cc1 target_system="MDA-MB-231 breast" qualitative_label=FALSE
compound=CCN(CC)CCN1C(=O)c2c(c3c4ccccc4[nH]c3c3ccc4ccccc4c23)C1=O target_system="MDA-MB-231 breast" qualitative_label=TRUE
compound="CCNC(=O)N1CCc2c(Br)c3c(c(OC)c2C1Cc1ccc(OC)cc1)OCO3 (configuration not stated)" target_system="MDA-MB-231 breast" qualitative_label=FALSE
compound=COc1ccc2cc(-c3nc4ccc(C)cn4c3NCc3ccco3)c(=O)[nH]c2c1 target_system="MDA-MB-231 breast" qualitative_label=FALSE
compound="CC1(C)CC(=O)C2=C(C1)C(c1ccc(Cl)cc1)n1ncc(C#N)c1N2 (configuration not stated)" target_system="MDA-MB-231 breast" qualitative_label=FALSE
compound="CCOC(=O)C1=C(c2ccccc2)N=C2N(c3ccccc3)N=C(C(C)=O)N2C1c1ccc(F)cc1 (configuration not stated)" target_system="MDA-MB-231 breast" qualitative_label=FALSE
compound="OC1(c2ccccc2)c2ccccc2N(c2ccccc2)c2ccc(Cl)cc21 (configuration not stated)" target_system="MDA-MB-231 breast" qualitative_label=TRUE
compound="COc1ccc(C2[C@@H](Cl)C(=O)N2c2cc(OC)c(OC)c(OC)c2)cc1Cl (some centres not stated)" target_system="MDA-MB-231 breast" qualitative_label=FALSE
compound="Cc1oc(-c2ccc(Cl)cc2)nc1C1=NN(C(=O)c2ccncc2)C(c2ccccc2)C1 (configuration not stated)" target_system="MDA-MB-231 breast" qualitative_label=FALSE
compound=O=C(c1c[nH]c2ccccc12)c1n[nH]c(=S)n1-c1ccc([N+](=O)[O-])cc1 target_system="MDA-MB-231 breast" qualitative_label=FALSE
compound=Cc1ccc(-c2csc(NC(=O)CSc3nc(N)cc(N)n3)n2)cc1 target_system="MDA-MB-231 breast" qualitative_label=FALSE
